Quick reference: Activity of mutant relative to wild-type Gaussia luciferase without the signal peptide of the listed items.
- EXPERIMENTAL DETAILS: Luminescence activity assay of purified Gaussia luciferase mutants on fluoro-coelenterazine
- Type: biochemical
- Design: key: ratio of mutant luminescence intensity to wild-type Gaussia luciferase
- PARTICULARS: Substrate f-CTZ (Table 16)
QUANTITY MEASURED: Activity of mutant relative to wild-type Gaussia luciferase without the signal peptide

# MOLECULE, MEASURED VALUE
records = [
    ("H79K P84L V138D: Gaussia luciferase mutant (protein, SIGNAL (1)..(17), Gaussia luciferase mutant) MGVKVLFALICIAVAEAKPTENNEDFNIVAVASNFATTDLDADRGKLPGKKLPLEVLKEMEANARKAGCTRGCLICLSKIKCTLKMKKFIPGRCHTYEGDKESAQGGIGEAIVDIPEIPGFKDLEPMEQFIAQVDLCDDCTTGCLKGLANVQCSDLLKKWLPQRCATFASKIQGQVDKIKGAGGD", 0.936),
    ("F26I V29A A30D A32V S33K T37E L40A: Gaussia luciferase mutant (protein, SIGNAL (1)..(17), Gaussia luciferase mutant) MGVKVLFALICIAVAEAKPTENNEDINIADVVKNFAETDADADRGKLPGKKLPLEVLKEMEANARKAGCTRGCLICLSHIKCTPKMKKFIPGRCHTYEGDKESAQGGIGEAIVDIPEIPGFKDLEPMEQFIAQVDLCVDCTTGCLKGLANVQCSDLLKKWLPQRCATFASKIQGQVDKIKGAGGD", 0.583),
    ("A30G V31I A32V S33G A36N T37D L40R: Gaussia luciferase mutant (protein, SIGNAL (1)..(17), Gaussia luciferase mutant) MGVKVLFALICIAVAEAKPTENNEDFNIVGIVGNFNDTDRDADRGKLPGKKLPLEVLKEMEANARKAGCTRGCLICLSHIKCTPKMKKFIPGRCHTYEGDKESAQGGIGEAIVDIPEIPGFKDLEPMEQFIAQVDLCVDCTTGCLKGLANVQCSDLLKKWLPQRCATFASKIQGQVDKIKGAGGD", 0.615),
]
